Listing of entries alongside the reported yeast fitness.
B1: tRNA (parent)
chain: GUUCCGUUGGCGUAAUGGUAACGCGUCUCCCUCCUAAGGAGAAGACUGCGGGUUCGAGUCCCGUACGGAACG

variants of: B1; assay: yeast fitness relative to wild type (ratio to wild type); higher = fitter; tRNA-Arg(CCU), competitive growth, 37 C, YPD
Fewer inactive variants are shown than the library holds.

| SEQUENCE CHANGE | COMPARISON OPERATOR | yeast fitness |
| --- | --- | --- |
| C5U G51C | = | 0.691 |
| U13C U35A A70G | ≤ | 0.5 |
| C5G C30U A65U | ≤ | 0.5 |
| U28A C66A | = | 0.575 |
| A14C C29A G50A G68C A70C | ≤ | 0.5 |
| C24U G39A A65U | = | 0.528 |
| U13A A21U A42U G44C | = | 0.652 |
| G18A C22U C24G | ≤ | 0.5 |
| C30G A42C U59A C60U | = | 0.507 |
| G9C G39C A45C | ≤ | 0.5 |
| A14G C22U C24U A65C | ≤ | 0.5 |
| C30U C46A G63C A70G | ≤ | 0.5 |
| A14G C34U C49A C60U | = | 0.512 |
| G6C C11G C27U A42G | ≤ | 0.5 |
| U19C C27G C46U | = | 0.673 |
| U7C C33U G67A | ≤ | 0.5 |
| G12A C27U C49U | = | 0.611 |
| C4U G6A C34A A70C | ≤ | 0.5 |
| C4U G12A C62U | = | 0.73 |
| C66U A70U | = | 0.923 |
| C11G A21U G68C | ≤ | 0.5 |
| G10A U16A | = | 0.708 |
| C11G C27G A42C A45C | ≤ | 0.5 |
| G6A A14U G52A G63C | ≤ | 0.5 |
| G6A A15C U16C | ≤ | 0.5 |
| U19A G39C | = | 0.742 |
| C22G C29A | = | 0.662 |
| U3A A37C C62U | = | 0.529 |
| G18C G41C C62G | ≤ | 0.5 |
| C5A A21G G67C | = | 0.933 |
| C29U A40C C49G G63A | ≤ | 0.5 |
| U47A G68C | = | 0.606 |
| C4G C29A | = | 0.757 |
| C5U G18C A40G A43C U54A | = | 0.72 |
| U7C G41A A42C G50C A70G | = | 0.571 |
| U16A U32A A40C U53A | = | 0.551 |
| C4A C5A A20U | = | 0.605 |
| U8A C24G G48C C49U U64A | ≤ | 0.5 |
| C11G C22U A36C G52C C66U | ≤ | 0.5 |
| A45U C62G G63C | ≤ | 0.5 |
| A14G U26C A37G C61U G68A | ≤ | 0.5 |
| C27A A37U C49U C55U C60G A65C | ≤ | 0.5 |
| U3C C27G A45C | ≤ | 0.5 |
| A36U G44C | = | 0.629 |
| A21G A45C C62U G68C A69G | ≤ | 0.5 |
| U7C C22A A45C C46U | ≤ | 0.5 |
